Tested on: Tylonycteris bat coronavirus HKU4
Details: at 100 µM
Label scheme for inhibition: lo: < 20%; med: ≥ 20% and < 30%; hi: ≥ 30%

{"molecule": "CC(C)(C)NC(=O)C(c1cccnc1)N(C(=O)c1ccc(C#N)cc1)C1CC1 (stereo unspecified)", "class.assignment": "med"}
{"molecule": "CCCOc1ccc(N(C(=O)c2ccco2)C(C(=O)NC(C)(C)C)c2cccnc2)cc1 (stereo unspecified)", "class.assignment": "lo"}
{"molecule": "CC(C)(C)NC(=O)C(c1cccc(F)c1)N(C(=O)Cn1nnc2ccccc21)C1CC2CCC1C2 (stereo unspecified)", "class.assignment": "lo"}
{"molecule": "CC(C)(C)NC(=O)C(c1cccnc1)N(C(=O)c1ncc[nH]1)c1ccc(C(C)(C)C)cc1 (stereo unspecified)", "class.assignment": "med"}
{"molecule": "CC(C)(C)NC(=O)C(c1cccnc1)N(C(=O)c1ccc(C(F)(F)F)o1)c1ccc(C(C)(C)C)cc1 (stereo unspecified)", "class.assignment": "lo"}
{"molecule": "CC(C)(C)NC(=O)C(c1ccsc1)N(C(=O)c1ccc(C(F)(F)F)nc1)c1ccc(C(C)(C)C)cc1 (stereo unspecified)", "class.assignment": "lo"}
{"molecule": "CC(C)(C)NC(=O)C(c1ccsc1)N(C(=O)c1cccc2c1CCCC2)c1ccc(C(C)(C)C)cc1 (stereo unspecified)", "class.assignment": "lo"}
{"molecule": "CC(C)(C)NC(=O)C(c1cccnc1)N(C(=O)Cc1cccnc1)C1CC1 (stereo unspecified)", "class.assignment": "hi"}
{"molecule": "CCC(=O)Nc1ccc(N(C(=O)Cn2c(C)nc3ccccc32)C(C(=O)NC(C)(C)C)c2ccsc2)cc1 (stereo unspecified)", "class.assignment": "lo"}
{"molecule": "CC(C)(C)c1ccc(N(Cc2cccnc2)C(=O)c2ccoc2)cc1", "class.assignment": "med"}
{"molecule": "CC(C)(C)NC(=O)C(c1cncnc1)N(C(=O)c1c[nH]cn1)c1ccc(C(C)(C)C)cc1 (stereo unspecified)", "class.assignment": "hi"}
{"molecule": "Cc1nc2ccccc2n1CC(=O)N(c1ccc(C(C)(C)C)cc1)C(C(=O)NC(C)(C)C)c1ccsc1 (stereo unspecified)", "class.assignment": "lo"}
{"molecule": "CC(C)(C)NC(=O)C(c1cccnc1)N(C(=O)c1ccco1)c1ccc(NS(C)(=O)=O)cc1 (stereo unspecified)", "class.assignment": "lo"}
{"molecule": "Cc1nc2ccccc2n1CC(=O)N(c1ccc(N)cc1)C(C(=O)NC(C)(C)C)c1ccsc1 (stereo unspecified)", "class.assignment": "lo"}
{"molecule": "CC(=O)Nc1ccc(N(C(=O)Cn2cc(-c3ccccc3)nn2)C(C(=O)NC(C)(C)C)c2ccsc2)cc1 (stereo unspecified)", "class.assignment": "lo"}
{"molecule": "CCC(C)c1ccc(N(C(=O)c2ccco2)[C@H](C(=O)NC(C)(C)C)c2cccnc2)cc1 (stereo partly specified)", "class.assignment": "hi"}
{"molecule": "CC(C)(C)NC(=O)C(c1cccnc1)N(C(=O)Cc1cccnc1)c1ccc(C(C)(C)C)cc1 (stereo unspecified)", "class.assignment": "med"}
{"molecule": "CC(C)(C)NC(=O)C(c1cccnc1)N(C(=O)c1cccc2c1CCCC2)c1ccc(OCF)cc1 (stereo unspecified)", "class.assignment": "med"}
{"molecule": "COc1ccc(N(C(=O)c2ccco2)C(C(=O)NC(C)(C)C)c2cccnc2)cc1 (stereo unspecified)", "class.assignment": "lo"}
{"molecule": "CC(C)(C)NC(=O)C(c1ccsc1)N(C(=O)Cn1nnc2ccccc21)c1ccc(N)cc1 (stereo unspecified)", "class.assignment": "hi"}
{"molecule": "CC(C)(C)NC(=O)C(c1cccnc1)N(C(=O)c1n[nH]c2ccccc12)c1ccc(OC(F)F)cc1 (stereo unspecified)", "class.assignment": "med"}
{"molecule": "CC(C)(C)NC(=O)C(c1cccnc1)N(C(=O)c1ccco1)c1ccc(-c2ccc(F)c(F)c2)cc1 (stereo unspecified)", "class.assignment": "lo"}
{"molecule": "CC(C)(C)OC(=O)n1cccc1-c1ccc(N(Cc2ccsc2)C(=O)Cn2nnc3ccccc32)cc1", "class.assignment": "hi"}
{"molecule": "CC(C)C(=O)Nc1ccc(N(Cc2ccsc2)C(=O)Cn2cc(-c3ccccc3)nn2)cc1", "class.assignment": "med"}
{"molecule": "O=C(Nc1ccc(N(Cc2ccsc2)C(=O)Cn2nnc3ccccc32)cc1)c1ccccc1", "class.assignment": "hi"}
{"molecule": "O=C(Cn1nnc2ccccc21)N(Cc1ccsc1)c1ccc(NC(=O)C(F)(F)F)cc1", "class.assignment": "hi"}
{"molecule": "CC(C)(C)NC(=O)C(c1cccnc1)N(C(=O)c1ccco1)C1CCCCC1 (stereo unspecified)", "class.assignment": "lo"}
{"molecule": "CC(C)C(=O)Nc1ccc(N(C(=O)Cn2nnc3ccccc32)C(C(=O)NCc2ccccc2)c2cccc(F)c2)cc1 (stereo unspecified)", "class.assignment": "hi"}
{"molecule": "CC(C)(C)NC(=O)C(c1ccsc1)N(C(=O)Cn1cnc2ccccc21)c1ccc(N)cc1 (stereo unspecified)", "class.assignment": "lo"}
{"molecule": "CC(C)C(=O)Nc1ccc(N(Cc2ccsc2)C(=O)Cn2cc([Si](C)(C)C)nn2)cc1", "class.assignment": "lo"}
{"molecule": "CC(C)(C)NC(=O)C(c1ccc(C(C)(C)C)cc1)N(C(=O)c1ccco1)c1ccc(C(C)(C)C)cc1 (stereo unspecified)", "class.assignment": "med"}
{"molecule": "O=C(Cn1nnc2ccccc21)N(Cc1ccsc1)c1ccc(NCc2ccccc2)cc1", "class.assignment": "hi"}
{"molecule": "CC(C)(C)NC(=O)C(c1ccsc1)N(C(=O)c1ccc(C#N)cc1)c1ccc(OCF)cc1 (stereo unspecified)", "class.assignment": "lo"}
{"molecule": "CC(C)c1ccc(N(C(=O)Cc2cccc3ccccc23)C(C(=O)NC(C)(C)C)c2cccnc2)cc1 (stereo unspecified)", "class.assignment": "med"}
